experiment: protein stability index of a GFP-peptide fusion (yeast GPS) (PSI 1-4); higher = more stable; sorted into four equal gates, so the index is relative within each strain; conditions: doa10∆
Listing of recorded protein stability index by entry.
No unit in the answer, only the number.

Here are 5 sequences together with their reported answers.
sequence_content: ISRERDLFTHLWNQWLK [SRP68]
measured_attribute: protein stability index
test_value: 3.04

sequence_content: HLHDAVFVNTGLQNVRK [SWP82]
measured_attribute: protein stability index
test_value: 2.99

sequence_content: HIILDTISECNLYDDVK [MED1]
measured_attribute: protein stability index
test_value: 2.49

sequence_content: TMTMDVFNDAHVLNKVT [RPN1]
measured_attribute: protein stability index
test_value: 2.26

sequence_content: EEGINKFKKEKFDIIIV [SRP54]
measured_attribute: protein stability index
test_value: 2.58

Give the reported protein stability index for this sequence. SHVENLEEKLYQMQSNY [YIL149C/MLP2]
2.45

Determine its reported protein stability index: LEKDAADCQAELTKTKS [YIL149C/MLP2]
2.94

Query protein stability index for KVLRKFRVQSQSNYGIY [NUT1]
1.85

Look up protein stability index of IVDDYWESLAKKQNLSS [SWP82] and report it.
2.91

This collection of values is drawn from the supplement of paper PMC9732359.
